Origin of the recorded values: ChEMBL document CHEMBL5154899

# Tested on: Mycobacterium tuberculosis
# experimentSummary: microbe, parasite or virus in culture
# details: H37Rv, 264 h
# Description: Antibacterial activity against Mycobacterium tuberculosis H37Rv gyrA -FDASTetON-1 hypomorph assessed as inhibition of bacterial growth incubated for 11 days
Exam item: assign True to entries whose MIC99 is below 2 µM and False to entries at or above 2 µM. Note that a value of exactly 2 µM receives False.

>>> category("C[C@@H]1CN2c3c(cc4c(N5CC[C@H](O)C5)noc4c3F)CC3(C(=O)NC(=O)NC3=O)[C@H]2[C@H](C)N1C#N")
"False"
>>> category("C[C@@H]1CN2c3c(cc4c(N5CC[C@H](O)C5)noc4c3F)CC3(C(=O)NC(=O)NC3=O)[C@H]2[C@H](C)O1")
"False"
>>> category("C[C@@H]1CN2c3c(cc4c(N5C(=O)OC[C@@H]5C)noc4c3F)CC3(C(=O)NC(=O)NC3=O)[C@H]2[C@H](C)O1")
"False"
>>> category("CO[C@H]1/C=C/O[C@@]2(C)Oc3c(C)c(O)c4c(O)c(c(/C=N/N5CCN(C)CC5)c(O)c4c3C2=O)NC(=O)/C(C)=C\\C=C\\[C@H](C)[C@H](O)[C@@H](C)[C@@H](O)[C@@H](C)[C@H](OC(C)=O)[C@@H]1C")
"True"
>>> category("COc1c(N2C[C@@H]3CCCN[C@@H]3C2)c(F)cc2c(=O)c(C(=O)O)cn(C3CC3)c12")
"True"
>>> category("C[C@@H]1CN2c3c(cc4c(-n5cncn5)noc4c3F)CC3(C(=O)NC(=O)NC3=O)[C@H]2[C@H](C)O1")
"True"
>>> category("C[C@@H]1CN2c3c(cc4c(N5C[C@@H](O)[C@H](O)C5)noc4c3F)CC3(C(=O)NC(=O)NC3=O)[C@H]2[C@H](C)O1")
"False"

---

# experimentSummary: physchem
propertyName: solubility kinetic at 20 h, 200 µM

>>> measured("C[C@@H]1CN2c3c(cc4c(N5C(=O)OC[C@@H]5C)noc4c3F)CC3(C(=O)NC(=O)NC3=O)[C@H]2[C@H](C)O1")
"160 µM"

---

Let's look at some compounds and their measured MIC99.
# System: Mycobacterium tuberculosis
# experimentSummary: microbe, parasite or virus in culture
# details: H37Rv, 264 h
# Description: Antibacterial activity against wild type Mycobacterium tuberculosis H37Rv assessed as inhibition of bacterial growth incubated for 11 days
propertyName: MIC99

>>> measured("C[C@@H]1CN2c3c(cc4c(N5CC[C@H](O)C5)noc4c3F)CC3(C(=O)NC(=O)NC3=O)[C@H]2[C@H](C)O1")
"5.9 µM"
>>> measured("CO[C@H]1/C=C/O[C@@]2(C)Oc3c(C)c(O)c4c(O)c(c(/C=N/N5CCN(C)CC5)c(O)c4c3C2=O)NC(=O)/C(C)=C\\C=C\\[C@H](C)[C@H](O)[C@@H](C)[C@@H](O)[C@@H](C)[C@H](OC(C)=O)[C@@H]1C [RIFAMPIN]")
"0.041 µM"
>>> measured("C[C@@H]1CN2c3c(cc4c(N5CC[C@H](O)C5)noc4c3F)CC3(C(=O)NC(=O)NC3=O)[C@H]2[C@H](C)N1C#N")
"10.3 µM"

---

Quick record: pIC50, DNA gyrase (Staphylococcus aureus, UniProt P0A0K8+P20831).
pIC50: −log10 of the molar value.
propertyName: pIC50

>>> measured("C[C@@H]1CN2c3c(cc4c(N5CC[C@H](O)C5)noc4c3F)CC3(C(=O)NC(=O)NC3=O)[C@H]2[C@H](C)O1")
5.16
>>> measured("C[C@@H]1CN2c3c(cc4c(N5C[C@@H](O)[C@H](O)C5)noc4c3F)CC3(C(=O)NC(=O)NC3=O)[C@H]2[C@H](C)O1")
5.18
>>> measured("C[C@@H]1CN2c3c(cc4c(N5CC[C@H](O)C5)noc4c3F)CC3(C(=O)NC(=O)NC3=O)[C@H]2[C@H](C)N1C#N")
5.51
>>> measured("C[C@@H]1CN2c3c(cc4c(-n5cncn5)noc4c3F)CC3(C(=O)NC(=O)NC3=O)[C@H]2[C@H](C)O1")
5.77
